Measured Kd values are reported for all entries that follow.
- target of assay: T1, EGFRvIII, full length, overexpressed on glioblastoma cells (human, UniProt P00533 298-623)
- T1 construct: Cells overexpress full length EGFRvIII (deletion of exons 2-7 of EGFR); Cell line (U87MG or DKMG) is named under assay; also called U87MG-EGFRvIII; U87vIII
- test protocol: flow cytometry dose-response on U87MG-EGFRvIII cells, apparent Kd
outcome measure: Kd (nM)

INSERT INTO measurements (binder, outcome_measure, value_modifier, experimental_value) VALUES
  ('F263-4B3 (antibody, V domains shown, Mouse hybridoma mAb) VH: EVQLQQSGPELVKPGSSVKISCKASGYTFTDYNMDWVKQSHGKSLEWIGTINPNNGGTSYNQKFKGKATLTVDKSSNTAYMELRSLTSEDSAVYYCARGYDYDLWFAYWGQGTLVTVSA VL: EIVLTQSPALMAASPGEKVTITCSVSSSISSSNLHWYQQKSETSPKPWIYGTSNLASGVPVRFSGSGSGTSYSLTISSMEAEDAATYYCQQWSSYPLTFGAGTKLELE', 'Kd', '=', 21.2),
  ('F266-11B1 (antibody, V domains shown, Mouse hybridoma mAb) VH: QIQLVQSGPELKKPGETVKISCKASGYTFTTAGMQWVKKMPGKGFKWIGWINTHSGDPKYAEDFKGRFAFSLETYASTAYLQISNLKNEDTASYFCARTHIYDGYNYAMDYWGQGTSVTVSS VL: DVVMTQTPLSLPVSLGDQASISCRSSQSLVYSNGNTYLHWYLQKPGQSPKLLIYKVSNRFSGVPDRFSGSGSGTDFTLKISRVEAEDLGVYFCSQSTHVPFTFGSGTKLEIK', 'Kd', '=', 2.2),
  ('F265-9C9 (antibody, V domains shown, Mouse hybridoma mAb) VH: QVQLQQPGAELVKPGASVKLSCKASGYTFTSYWMHWVKQRPGQDLEWIGEIDPSDSYTNYNQKFKGKATLTVDKSSSTAYIQLSSLTSEDSALYYCARFDFAYWGQGTLVTVSA VL: EIVLTQSPTLMAASPGEKVTITCSVSSSISSSNLHWYQQKSETSPKPWIYDTSNLASGVPIRFSGSGSGTSYSLTISSVEAEDAATYYCQQWSSYPLTFGSGTKLEIK', 'Kd', '>', 200);
